Cited source for all entries: PubChem BioAssay AID2796

- STUDY_SYSTEM: Aryl hydrocarbon receptor (Homo sapiens) (UniProt P35869)
- Sequence (P35869 whole entry, looked up): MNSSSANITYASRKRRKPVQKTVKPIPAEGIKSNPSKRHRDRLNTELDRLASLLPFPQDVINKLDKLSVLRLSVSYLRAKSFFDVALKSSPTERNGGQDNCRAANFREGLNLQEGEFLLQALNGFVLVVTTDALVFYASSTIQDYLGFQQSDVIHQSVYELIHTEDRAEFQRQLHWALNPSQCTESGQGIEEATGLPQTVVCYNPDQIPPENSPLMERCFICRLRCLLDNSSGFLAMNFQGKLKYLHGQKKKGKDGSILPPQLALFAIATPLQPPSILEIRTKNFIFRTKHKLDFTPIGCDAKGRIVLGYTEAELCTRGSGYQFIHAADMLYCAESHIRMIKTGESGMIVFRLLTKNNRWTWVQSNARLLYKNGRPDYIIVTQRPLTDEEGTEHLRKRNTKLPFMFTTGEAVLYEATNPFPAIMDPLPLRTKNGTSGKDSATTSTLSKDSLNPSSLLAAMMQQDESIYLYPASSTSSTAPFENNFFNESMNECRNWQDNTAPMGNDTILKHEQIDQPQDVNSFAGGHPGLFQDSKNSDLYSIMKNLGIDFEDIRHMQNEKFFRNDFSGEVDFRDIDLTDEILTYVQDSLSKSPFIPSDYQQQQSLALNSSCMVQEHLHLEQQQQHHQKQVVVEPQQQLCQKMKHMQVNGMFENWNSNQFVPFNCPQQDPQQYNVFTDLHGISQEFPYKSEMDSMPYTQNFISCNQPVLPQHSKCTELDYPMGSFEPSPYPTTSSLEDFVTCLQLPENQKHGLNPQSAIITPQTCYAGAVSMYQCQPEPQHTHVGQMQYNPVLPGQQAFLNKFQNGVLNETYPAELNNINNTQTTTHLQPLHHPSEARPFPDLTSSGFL
- PROTOCOL_SUMMARY: AHR activators, primary screen, cell-based, luminescence, luciferase reporter, human (AID 2796)
- CONDITIONS: AHR-responsive luciferase reporter cells, at 5 µM
Among all 320,000 compounds or so, about 8,000 (2.5%) were called active. No stated cut-off is given here; in the data, active means activation above about 47%; inactive means the rest. Shown is part of a subset that was picked to be rich in actives.
Respond with a class label; see active, inactive

Some entries whose results are on file:
[
  {
    "MOLECULE": "COc1ccc(NC(=O)c2cn(CCC#N)nc2-c2ccc([N+](=O)[O-])cc2)cc1",
    "STUDY_SYSTEM": "Aryl hydrocarbon receptor (Homo sapiens) (UniProt P35869)",
    "CLASS_LABEL": "inactive"
  },
  {
    "MOLECULE": "N[C@@H](Cc1c[nH]c2ccccc12)c1nnc(SCc2c(F)cccc2Cl)o1",
    "STUDY_SYSTEM": "Aryl hydrocarbon receptor (Homo sapiens) (UniProt P35869)",
    "CLASS_LABEL": "active"
  },
  {
    "MOLECULE": "O=C(NC(c1ccc(Cl)cc1)P(=O)(Oc1ccccc1)Oc1ccccc1)OCc1ccccc1 (configuration not stated)",
    "STUDY_SYSTEM": "Aryl hydrocarbon receptor (Homo sapiens) (UniProt P35869)",
    "CLASS_LABEL": "inactive"
  },
  {
    "MOLECULE": "CC1(C)C(c2ccccc2)=NC(c2cccnc2)=[N+]1[O-]",
    "STUDY_SYSTEM": "Aryl hydrocarbon receptor (Homo sapiens) (UniProt P35869)",
    "CLASS_LABEL": "inactive"
  }
]

query: Dear all, I need the recorded test outcome for CCOC(=O)C1=C(C)OC(N)=C(C(=O)OC)C12C(=O)Nc1ccc(Br)cc12 (configuration not stated) , thank you.
result: active

query: Dear all, I need the recorded test outcome for COC(=O)CN1C(=O)C2(C(C(=O)OC)=C(N)Oc3ccccc32)C2=C1CC(C)(C)CC2=O (configuration not stated) , thank you.
result: inactive

query: Dear all, I need the recorded test outcome for Nc1ccc(C(=O)N/N=C2/CN3CCC2CC3)cc1 , thank you.
result: inactive
